The origin of these recorded values is patent US20040224958A1.

Target: cdk2/cyclinE (Homo sapiens)
Assay: Cyclin-Dependent Kinase Assay cdk2/cyclinE
Details: cdk2/E IC50
pIC50: −log10 of the molar value.
Please note: Satisfied applies when pIC50 is 7 or greater, and Not satisfied applies otherwise.

Some entries whose results are on file:
NS(=O)(=O)c1ccc(Nc2ncc3ccc(=O)n(CC4CC4)c3n2)cc1 :: Satisfied
CCCn1c(=O)ccc2cnc(Nc3ccc(Cl)c(Cl)c3)nc21 :: Not satisfied
CCCn1c(=O)ccc2cnc(Nc3ccc(O)c(CN4CCOCC4)c3)nc21 :: Not satisfied
Cn1c(=O)ccc2cnc(Nc3ccc(NC(=O)OC(C)(C)C)cc3)nc21 :: Not satisfied
CCn1c(=O)ccc2cnc(Nc3ccc4[nH]ccc4c3)nc21 :: Not satisfied
CCCn1c(=O)ccc2cnc(Nc3cc(OC)c(OC)c(OC)c3)nc21 :: Not satisfied
O=c1ccc2cnc(Nc3cccc(O)c3)nc2n1CC1CC1 :: Not satisfied
CCCCn1c(=O)ccc2cnc(Nc3cccc(C(F)(F)F)c3)nc21 :: Not satisfied

Enquiry: Decide: pIC50 of CCC(CC)n1c(=O)ccc2cnc(Nc3ccc4cn[nH]c4c3)nc21 >= 7?
Return: Satisfied

Enquiry: Same lookup for CCCn1c(=O)ccc2cnc(Nc3ccc(F)cc3F)nc21 , please.
Return: Not satisfied

Enquiry: What do you get for CCn1c(=O)ccc2cnc(Nc3ccc(F)c(F)c3)nc21 ?
Return: Not satisfied

Enquiry: Okay, and CCCn1c(=O)ccc2cnc(Nc3ccc(N(C)C(C)=O)cc3)nc21 ?
Return: Not satisfied
